src = the RNAGym collection of RNA variant scans (doi:10.1126/science.aae0568)

# yeast fitness per entry
B1: tRNA (parent)
chain: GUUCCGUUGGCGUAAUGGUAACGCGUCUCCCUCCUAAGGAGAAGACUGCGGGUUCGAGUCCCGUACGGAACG

- Variants of: B1
- TEST_PROTOCOL: yeast fitness relative to wild type (ratio to wild type); higher = fitter; tRNA-Arg(CCU), competitive growth, 37 C, YPD
Fewer inactive variants are shown than the library holds.
// keep it numeric: no unit symbol after the value

Solved cases below.
C61U A65G G68A :: 0.705
C46A U64G :: 0.82
A21U U53C A57C :: 0.619
U7A A14G A65C :: 0.662
C4U C11G A45U :: 0.545
C61G A65C :: 0.658

Q: Entry under review: G48C G63C . Reported yeast fitness?
Result: 0.705

Q: Then C4A A14C C60G C66U G68A ?
Result: 0.561

Q: Next variant up: G9A C22G U35C A37U
Result: 0.535

Q: And for C33U C61U C66G ?
Result: 0.543

Q: Same lookup for C22G C30U A37G A43U , please.
Result: 0.549

Q: Similarly, C46A G67A ?
Result: 0.88
